Below is a list of entries, each paired with its recorded OD450 value.
# Study target: T1, human IL-17A (human, UniProt Q16552 20-155, limits assumed)
# T1 construct: Bought from R&D Systems; also called IL-17 antigen (human IL17A)
# T1 sequence (looked up): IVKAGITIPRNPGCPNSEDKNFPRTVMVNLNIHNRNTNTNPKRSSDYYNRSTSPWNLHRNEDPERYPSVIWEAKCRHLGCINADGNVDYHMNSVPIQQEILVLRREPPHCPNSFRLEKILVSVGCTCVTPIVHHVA
# Experimental protocol: blocking ELISA, IL-17RA coated; antibody 1 ug/ml pre-mixed with human IL-17A 0.1 ug/ml; bound IL-17A detected
Report the value in OD450 with no unit label.

Below: 3 binders and their reported OD450.
{"columns": ["Binder", "Property label", "Unit symbol", "Assay result"],
 "data": [
  ["PP10768 (antibody, human IgG4 S228P, kappa, V domains shown, Humanized, human IgG4/kappa; also called VH6667/VL6667) VH: EVQLVESGGGVVQPGRSLRLSCAASGFTFSTYGMSWVRQAPGKGLELVAIINHNGGSTFYPDSVKGRFTISRDNSKNTLYLQMNSLRAEDTAVYYCARDPRHDGYFFDYWGQGTLVTVSS VL: DIQMTQSPSSLSASVGDRVTITCRASEDIYDRLAWYQQKPGKAPNLLVSGATSLESGVPSRFSGSGSGKDYTLTISSLQPEDFATYYCQQYWSVPWTFGGGTKVEIKR", "OD450", "OD450", 0.0869],
  ["PP10762 (antibody, human IgG4 S228P, kappa, V domains shown, Humanized, human IgG4/kappa; also called VH6665/VL6667) VH: EVQLVESGGGLVQPGGSLRLSCAASGFTFSTYGMSWVRQAPGKGLELVSIINHNGGSTFYPDSVKGRFTISRDNSKNTLYLQMNSLRAEDTAVYYCARDPRHDGYFFDYWGQGTLVTVSS VL: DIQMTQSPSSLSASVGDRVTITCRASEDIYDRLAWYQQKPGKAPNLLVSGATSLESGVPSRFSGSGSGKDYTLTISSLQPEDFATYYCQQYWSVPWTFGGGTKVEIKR", "OD450", "OD450", 0.0846],
  ["PP10759 (antibody, human IgG4 S228P, kappa, V domains shown, expressed in HEK293; also called chimeric antibody PP10759; chimeric parental antibody) VH: EVQLVESGGGLVQPGGSLKLSCVASGFTFSTYGMSWVRQTPDKRLELVAIINHNGGSTFYPDSVKGRFTVSRDNAKNTLHLQMSSLKSEDTAMYYCARDPRHDGYFFDYWGQGTTLTVSS VL: DIQMTQSSPSFSVSLGDRVTITCKASEDIYDRLAWYQQKPGNAPRLLISGATSLETGIPSRFSGSRSGKDYTLDINSLQTEDAATYYCQQYWSVPWTFGGGTKLEIKR", "OD450", "OD450", 0.0872]
]}

Now look at this entry.
Which OD450 value is on record for PP10761 (antibody, human IgG4 S228P, kappa, V domains shown, Humanized, human IgG4/kappa; also called VH6665/VL6666) VH: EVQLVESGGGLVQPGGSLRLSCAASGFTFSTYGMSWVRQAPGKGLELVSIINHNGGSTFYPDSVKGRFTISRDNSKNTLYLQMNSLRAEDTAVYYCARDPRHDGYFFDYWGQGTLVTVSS VL: DIQMTQSPSSLSASVGDRVTITCQASEDIYDRLAWYQQKPGKAPKLLISGATSLETGVPSRFSGSGSGKDYTFTISSLQPEDIATYYCQQYWSVPWTFGGGTKVEIKR ? 0.0851
